subject of test: BIR3 domain of human cIAP-1 (residues 267-363) (Homo sapiens (Human), UniProt Q13490)
Sequence (Q13490 267-363): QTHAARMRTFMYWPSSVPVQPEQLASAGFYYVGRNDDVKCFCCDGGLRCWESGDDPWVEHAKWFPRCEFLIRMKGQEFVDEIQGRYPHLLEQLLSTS
assay comment: cIAP-1 in vitro competitive displacement binding assay (fluorescence polarization; Probe A AVPIK(5&6FAM)-amide or Probe B AbuRPFK(5&6FAM)-amide)
Counter-ions that a name gives are not always drawn.
recorded metric: IC50

For reference, reported IC50 for CC(C)C(F)(F)c1cc2c(cn1)C(C)(C)CN2C(=O)CN1C[C@@H](C)NC[C@@H]1CN1CCCC1=O [Example 211, hydrochloride] stands at < 1000 nM

Looking up COC[C@H]1CN[C@H](C)CN1CC(=O)N1CC(C)(C)c2cnc(N3CCCC3=O)cc21 [Example 102, hydrochloride salt] , I found its IC50 recorded as < 1000 nM

Looking up CC(C)[C@H]1CN[C@H](C)CN1CC(=O)N1CCc2ccc(Br)cc21 , I see its IC50 listed as < 10000 nM

Measured IC50 of C[C@@H]1CN(CC(=O)N2CCc3cnc(-c4cc(Cl)ccc4F)cc32)CCN1 [Example 38, hydrochloride salt] : < 10000 nM

// IC50 value for C[C@@H]1CN(CC(=O)N2CC(C)(C)c3cnc(C(F)(F)C4CC4)cc32)[C@@H](CN2CCCC2=O)CN1 [Example 212, hydrochloride] : < 1000 nM

Query COC[C@H]1CN[C@H](C)CN1CC(=O)N1CC(C)(c2cccnc2)c2ccc(Cc3ccccc3)cc21 (stereo partly drawn) [Example 163, hydrochloride] yields IC50 of < 1000 nM

###

Hi there, I'd appreciate the recorded IC50 for every entry that follows.
subject of test: BIR3 domain of human cIAP-1 (residues 267-363) (Homo sapiens (Human), UniProt Q13490)
assay comment: cIAP-1 in vitro competitive displacement binding assay (fluorescence polarization; Probe A AVPIK(5&6FAM)-amide or Probe B AbuRPFK(5&6FAM)-amide)
condition notes: Probe B AbuRPFK(5&6FAM)-amide; read-out: IC50 or PI cIAP1: IC50
Counter-ions that a name gives are not always drawn.
Express it in µM; write the number only.

Recorded result, COC[C@H]1CN[C@H](C)CN1CC(=O)N1CC(C)(C)c2cc(OC)ncc21 [Example 65, hydrochloride salt] , IC50: 1.3

GET /value?item= C[C@@H]1CN(CC(=O)N2CC(C)(C)c3ccc(Cl)cc32)[C@@H](Cn2cccn2)CN1 [Example 138, hydrochloride] &field=IC50 returns 0.33

Value of measured IC50 for the entry COC[C@H]1CN[C@H](C)CN1CC(=O)N1CC(C)(C)c2nnc(Cl)cc21 [Example 183, hydrochloride] : 0.63

The recorded IC50 for C[C@@H]1CN(CC(=O)N2CC(C)(C)c3cnc(C(C)(F)F)cc32)[C@@H](CN2CCCC2=O)CN1 [Example 184, dihydrochloride] is 0.031

The recorded IC50 for entry COC[C@H]1CN[C@H](C)CN1CC(=O)N1CC(C)(c2ccccn2)c2ccc(Cc3ccccc3)cc21 (some centres unmarked) [Example 144, hydrochloride] equals 0.012

Looking up COC[C@H]1CN[C@H](C)CN1CC(=O)N1CC(C)(C)c2ccc(Cc3ccccc3)cc21 [Example 94, hydrochloride salt] , I found its IC50 recorded as 0.014

Entry under test: CCC1(CC)CN(C(=O)CN2C[C@@H](C)NC[C@@H]2C(=O)N2CCOCC2)c2cc(Cl)ccc21 [Example 135, hydrochloride] . Its IC50 was 0.079

Measured IC50 of CCC(F)(F)c1cc2c(cn1)C(C)(C)CN2C(=O)CN1C[C@@H](C)NC[C@@H]1CN1CC[C@@H](F)C1 [Example 214, hydrochloride] : 0.024

For reference, reported IC50 for COC[C@H]1CN[C@H](C)CN1CC(=O)N1CC(C)(C)c2cnc(Oc3ccccc3Cl)cc21 [Example 110, hydrochloride salt] stands at 0.035

Per the records, this compound ( COC[C@H]1CN[C@H](C)CN1CC(=O)N1C[C@](C)(c2cc(C)no2)c2ccc(Cc3ccccc3)cc21 [Example 174, hydrochloride] ) has IC50 equal to 0.19

Entry C=C(c1ccccc1)c1cc2c(cn1)C(C)(C)CN2C(=O)CN1C[C@@H](C)NC[C@@H]1COC [Example 93, hydrochloride salt] — recorded IC50 = 0.059

# IC50 (compound: COC[C@H]1CN[C@H](C)CN1CC(=O)N1CC2(Cc3ccccc3C2)c2ccc(Cl)cc21 ) is 0.17

// sample C[C@@H]1CN(CC(=O)N2CC(C)(C)c3cnc(Oc4ccccc4Cl)cc32)[C@@H](Cn2cc(F)cn2)CN1 [Example 177, hydrochloride] , its IC50 was 0.018

Just so you know, measured IC50 for COC[C@H]1CN[C@H](C)CN1CC(=O)N1CC2(CN(C(C)=O)C2)c2ccc(Cc3ccccc3)cc21 [Example 76, hydrochloride salt] came out at 0.016

For COC[C@H]1CN[C@H](C)CN1CC(=O)N1CC(C)(Cc2ccccc2)c2ccc(Cl)cc21 (some centres unmarked) [Example 107, hydrochloride salt] the compound record lists IC50 as 0.55

Quick note, IC50 for COC[C@H]1CN[C@H](C)CN1CC(=O)N1CC(C)(c2cccnc2)c2ccc(Cc3ccccc3)cc21 (some centres unmarked) [Example 163, hydrochloride] landed at 0.013

Record C[C@@H]1CN(CC(=O)N2CC(C)(C)c3cnc(Cc4ccccc4)cc32)[C@@H](C(=O)N(C)C)CN1 [Example 99, hydrochloride salt] . Reported IC50: 0.012

Form field IC50, entry COC[C@H]1CN[C@H](C)CN1CC(=O)N1CC(C)(COC)c2ccc(Br)cc21 (some centres unmarked) [Example 127, hydrochloride] : 0.35

Reported IC50 for COC[C@H]1CN[C@H](C)CN1CC(=O)N1CC(C)(C)c2cnc(C(C)c3ccccc3)cc21 (some centres unmarked) [Example 87, hydrochloride salt] was 0.024

// recorded IC50 for C[C@@H]1CN(CC(=O)N2CC(C)(C)c3cnc(C(F)(F)C4CC4)cc32)[C@@H](CN2CCCC2=O)CN1 [Example 212, hydrochloride] : 0.014

Lab note: COC[C@H]1CN[C@H](C)CN1CC(=O)N1CC(C)(C)c2cc(=O)n(Cc3ccccc3)cc21 [Example 67, hydrochloride salt] gave IC50 of 0.017

The recorded IC50 for COC[C@H]1CN[C@H](C)CN1CC(=O)N1C[C@](C)(COC)c2ccc(Br)cc21 [Example 168, hydrochloride] is 0.89

Form field IC50, entry C[C@@H]1CN(CC(=O)N2C[C@](C)(c3ccccc3)c3ccc(C#N)cc32)[C@@H](Cn2cccn2)CN1 : 0.26

get_value(item= C[C@@H]1CN(CC(=O)N2CC(C)(C)c3c(Cl)cc(Cl)cc32)CCN1 [Example 46, hydrochloride salt] , readout=IC50) returns 4.8

The compound listed as C[C@@H]1CN(CC(=O)N2CC3(CCC3)c3ccc(Cl)cc32)CCN1 [Example 55, hydrochloride salt] has a reported IC50 of 8.2

Lab book: IC50 of COC[C@H]1CN[C@H](C)CN1CC(=O)N1CC(C)(C)c2cnc(C3=CCCCC3)cc21 [Example 106, hydrochloride salt] noted as 0.023

###

subject of test: BIR3 domain of human cIAP-1 (residues 267-363) (Homo sapiens (Human), UniProt Q13490)
assay comment: cIAP-1 in vitro competitive displacement binding assay (fluorescence polarization; Probe A AVPIK(5&6FAM)-amide or Probe B AbuRPFK(5&6FAM)-amide)
condition notes: read-out: IC50 or PI cIAP1: IC50
Where a name gives a salt, the structure may show the parent alone.
recorded metric: pIC50
The value called pIC50 is obtained by taking minus log10 of the concentration in mol/L.

Kindly note the recorded pIC50 for CNS(=O)(=O)c1ccc2c(c1)N(C(=O)CN1C[C@@H](C)NC[C@@H]1COC)CC2(C)C [Example 61, dihydrochloride salt] , which is 5.80

// pIC50 value for C[C@@H]1CN(CC(=O)N2CC(C)(C)c3ncc(C(=O)c4ccccc4)cc32)[C@@H](CN2CCCC2=O)CN1 [Example 187, dihydrochloride] : 7.49

Sure, the documented pIC50 for COC[C@H]1CN[C@H](C)CN1CC(=O)N1CC(C)(C)c2cnc(C3CCCCC3)cc21 [Example 118, dihydrochloride] is 6.62

The reported value for CCC(F)(F)c1cnc2c(c1)N(C(=O)CN1C[C@@H](C)NC[C@@H]1CN1CCOC[C@H]1COC)CC2(C)C [Example 256, dihydrochloride] in terms of pIC50 is 7.62

pIC50 reading for CCS(=O)(=O)c1cc2c(cc1F)C(C)(C)CN2C(=O)CN1CCN[C@H](C)C1 [Example 51, dihydrochloride salt] : 5.49

Query COC[C@H]1CN[C@H](C)CN1CC(=O)N1CC(C)(C)c2cnc(-c3ccc(C)s3)cc21 [Example 148, dihydrochloride] yields pIC50 of 7.35

// recorded pIC50 for COC(=O)c1ccc2c(c1)N(C(=O)CN1CCN[C@H](C)C1)CC2 [Example 15] : 5.17

Recorded result, C[C@@H]1CN(CC(=O)N2CC(C)(C)c3ncc(C(F)(F)CC4CC4)cc32)[C@@H](CN2CCOCC2)CN1 [Example 231, dihydrochloride] , pIC50: 8.02

The recorded pIC50 for CC[C@@H]1COCCN1C[C@H]1CN[C@H](C)CN1CC(=O)N1CC(C)(C)c2ncc(C(F)(F)CC)cc21 [Example 255, dihydrochloride] is 7.85

Looking up COC[C@H]1CN[C@H](C)CN1CC(=O)N1CC(C)(C)c2ccc(S(=O)(=O)CC(C)C)cc21 [Example 64, dihydrochloride salt] , I see its pIC50 listed as 6.85

Recorded result, CCC(F)(F)c1cnc2c(c1)N(C(=O)CN1C[C@@H](C)NC[C@@H]1CN1CCCC1=O)CC2(C)C [Example 190, hydrochloride] , pIC50: 7.54

get_value(item= CCS(=O)(=O)c1ccc2c(c1)N(C(=O)CN1C[C@@H](C)NC[C@@H]1COC)CC2(C)C [Example 59, dihydrochloride salt] , readout=pIC50) returns 6.30

Record summary for COC[C@H]1CN[C@H](C)CN1CC(=O)N1CC(C)(C)c2ccc(S(=O)(=O)NC(C)C)cc21 [Example 69, dihydrochloride salt] : reported pIC50 = 5.85

meta.source: patent US9018214B2
